Data origin: paper PMC6327980

Molecular target: BpsCAβ (Burkholderia pseudomallei)
Sequence (Q63Y17 1-256): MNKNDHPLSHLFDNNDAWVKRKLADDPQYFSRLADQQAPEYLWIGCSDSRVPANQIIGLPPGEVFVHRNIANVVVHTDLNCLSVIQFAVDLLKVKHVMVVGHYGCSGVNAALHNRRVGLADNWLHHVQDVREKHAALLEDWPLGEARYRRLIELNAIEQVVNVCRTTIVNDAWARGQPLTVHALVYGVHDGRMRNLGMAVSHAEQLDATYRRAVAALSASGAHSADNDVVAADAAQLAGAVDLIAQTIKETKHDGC
Conditions: read-out: BpsCAβ
What Ki was measured for each of the following?
Please respond with the number in nM and leave the unit unwritten.

If you can, please state the reported Ki value of NS(=O)(=O)c1ccc(-c2ncc(C[Te]c3ccccc3)[se]2)cc1 . 920

If you can, please state the reported Ki value of Cc1ccc([Te]Cc2cnc(-c3ccc(S(N)(=O)=O)cc3)[se]2)cc1 . 320

* * *

What pKi was measured for each of the following?
pKi (log units): -log10 of the concentration in mol/L.

Given the entry COc1ccc([Te]Cc2cnc(-c3ccc(S(N)(=O)=O)cc3)[se]2)cc1 , what pKi was observed with VchCAα (Vibrio cholerae)? 6.11

Given the entry N=C(N)SCc1cnc(-c2ccc(S(N)(=O)=O)cc2)[se]1 , what pKi was observed with VchCAα (Vibrio cholerae)? 6.36

Given the entry NS(=O)(=O)c1ccc(-c2ncc(C[Se]c3ccccc3)[se]2)cc1 [10a] , what pKi was observed with VchCAα (Vibrio cholerae)? 6.06

Given the entry COc1ccc([Se]Cc2cnc(-c3ccc(S(N)(=O)=O)cc3)[se]2)cc1 [10c] , what pKi was observed with VchCAα (Vibrio cholerae)? 6.04

Given the entry Cc1ccc([Se]Cc2cnc(-c3ccc(S(N)(=O)=O)cc3)[se]2)cc1 [10b] , what pKi was observed with VchCAα (Vibrio cholerae)? 6.34

Given the entry NS(=O)(=O)c1ccc(-c2ncc(C[Te]c3ccccc3)[se]2)cc1 , what pKi was observed with VchCAα (Vibrio cholerae)? 6.03

Given the entry Cc1ccc([Te]Cc2cnc(-c3ccc(S(N)(=O)=O)cc3)[se]2)cc1 , what pKi was observed with VchCAα (Vibrio cholerae)? 6.33
